Data provenance: PubChem BioAssay (NCATS)

- TARGET ENTITY: Dual specificity protein kinase CLK4 (Homo sapiens) (UniProt Q9HAZ1)
- Sequence (Q9HAZ1 whole entry, looked up): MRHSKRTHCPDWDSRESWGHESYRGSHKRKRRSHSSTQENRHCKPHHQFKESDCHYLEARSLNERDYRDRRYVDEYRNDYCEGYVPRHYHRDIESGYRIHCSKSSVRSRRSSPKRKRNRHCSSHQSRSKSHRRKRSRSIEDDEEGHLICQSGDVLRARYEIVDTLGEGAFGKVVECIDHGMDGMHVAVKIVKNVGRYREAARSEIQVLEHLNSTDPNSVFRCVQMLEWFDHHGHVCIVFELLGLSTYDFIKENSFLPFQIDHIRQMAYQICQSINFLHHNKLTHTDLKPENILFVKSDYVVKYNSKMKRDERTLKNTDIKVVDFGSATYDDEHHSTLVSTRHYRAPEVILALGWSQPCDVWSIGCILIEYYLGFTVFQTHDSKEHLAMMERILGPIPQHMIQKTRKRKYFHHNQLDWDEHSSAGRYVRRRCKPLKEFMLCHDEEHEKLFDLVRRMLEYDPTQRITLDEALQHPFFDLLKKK
- EXPERIMENT SUMMARY: qHTS Assay for Inhibitors of CDC-like Kinase 4 (ADP-Glo Assay) (AID 1771); note: nearly all actives have a fitted effect of over 70% in size; note: potency is the fitted concentration of half-maximal effect
- MEASUREMENT PARAMETERS: recombinant CLK4, ADP-Glo luminescence; series mostly up to 80 µM
Inconclusive results are not listed. Calls of active or inactive are those of the source. Calls come from the whole dose curve; as a rule, active = well fitted inhibition curve with a large enough effect; inconclusive = small, poorly fitted or top-dose-only effect; inactive = flat fitted curve, though single readings scatter.
MEASUREMENT TYPE: Potency

[[record]]
structure_as_smiles = "CN(C)c1ncc2nc(-c3ccccc3)c(=O)n(-c3ccccc3)c2n1"
data_value = "inactive"

[[record]]
structure_as_smiles = "CS(=O)(=O)Nc1cccc(-c2ccc3ncnc(NC4CC4)c3c2)c1"
data_value = "5.01 µM (active)"

[[record]]
structure_as_smiles = "CN(C)c1ncc2ncc(=O)n(CCc3ccccc3)c2n1"
data_value = "6.31 µM (active)"

[[record]]
structure_as_smiles = "CNc1ncnc2ccc(-c3ccccc3CN(C)C)cc12"
data_value = "12.6 µM (active)"

[[record]]
structure_as_smiles = "COc1ccc(CNc2ccnc(-c3ccc4c(c3)OCO4)n2)c(OC)c1"
data_value = "inactive"

[[record]]
structure_as_smiles = "Fc1ccc(Nc2ccnc(-c3ccccc3C(F)(F)F)n2)cc1"
data_value = "inactive"

[[record]]
structure_as_smiles = "COc1cccc(Cn2c(=O)c(C)nc3cnc(N4CCN(C)CC4)nc32)c1"
data_value = "inactive"

[[record]]
structure_as_smiles = "COc1ccc(-n2c(=O)cnc3cnc(N(C)C)nc32)cc1"
data_value = "12.6 µM (active)"

[[record]]
structure_as_smiles = "COc1ccccc1-c1cc(NCc2cccc(C)c2)ncn1"
data_value = "35.5 µM (active)"

[[record]]
structure_as_smiles = "COc1ccc(-c2nc3cnc(N4CCN(C)CC4)nc3n(-c3ccc(OC)cc3)c2=O)cc1"
data_value = "inactive"

[[record]]
structure_as_smiles = "CN(C)c1ncnc2ccc(-c3ccoc3)cc12"
data_value = "0.562 µM (active)"

[[record]]
structure_as_smiles = "Cn1c(=O)c(-c2cc(F)cc(F)c2)nc2cnc(N3CCOCC3)nc21"
data_value = "inactive"

[[record]]
structure_as_smiles = "CS(=O)(=O)Nc1cccc(-c2ccc3ncnc(N4CCNCC4)c3c2)c1"
data_value = "15.8 µM (active)"

[[record]]
structure_as_smiles = "c1cncc(CNc2ncnc3ccc(-c4ccoc4)cc23)c1"
data_value = "1.58 µM (active)"

[[record]]
structure_as_smiles = "CN1CCN(c2ncc3nc(CCc4ccccc4)c(=O)n(C4CC4)c3n2)CC1"
data_value = "inactive"

[[record]]
structure_as_smiles = "Cc1nc2cnc(N3CCNCC3)nc2n(Cc2cccs2)c1=O"
data_value = "inactive"

[[record]]
structure_as_smiles = "CS(=O)(=O)Nc1cccc(-c2ccc3ncnc(Nc4ccccc4)c3c2)c1"
data_value = "14.1 µM (active)"

[[record]]
structure_as_smiles = "CS(=O)(=O)Nc1cccc(-c2ccc3ncnc(NC4CCNCC4)c3c2)c1"
data_value = "7.08 µM (active)"

[[record]]
structure_as_smiles = "COCCNc1nc(-c2ccccc2OC)nc2ccccc12"
data_value = "inactive"

[[record]]
structure_as_smiles = "O=c1c(-c2ccc(Cl)cc2)nc2cnc(N3CCOCC3)nc2n1-c1ccccc1"
data_value = "inactive"

[[record]]
structure_as_smiles = "Cc1nc2cnc(N3CCN(C)CC3)nc2n(Cc2ccc(F)cc2)c1=O"
data_value = "inactive"

[[record]]
structure_as_smiles = "N#CCCn1c(=O)cnc2cnc(Oc3ccccc3)nc21"
data_value = "inactive"

[[record]]
structure_as_smiles = "COc1ccc(Oc2ncc3nc(C)c(=O)n(Cc4cccc(OC)c4)c3n2)cc1"
data_value = "inactive"

